The origin of these recorded values is paper PMC7531004.

- System: Streptococcus pyogenes SSI-9
- METHOD NOTES: Antibacterial activity assay of bead-derived peptides (three concentrations)
- Type: cell-based
- Design: key: +++: inhibition by the 640-fold diluted peptide solution; ++: inhibition by the 160-fold diluted solution; +: inhibition by the 40-fold diluted solution; -: no inhibition
- STUDY CONDITIONS: S. pyogenes, bead-derived peptide solution, three concentrations
Where a SMILES comes first, the peptide text is derived from it. [ ]: non-standard residue; d: D form. The star is where a group is joined. NHCH2CH2OH = OCCN*; For = O=C*

COMPOUND: CC(C)C[C@@H](NC(=O)[C@H](C)NC(=O)[C@H](NC(=O)[C@H](C)NC(=O)CNC(=O)[C@@H](NC=O)C(C)C)[C@H](C)O)C(=O)N[C@H](C(=O)N[C@H](CC(C)C)C(=O)N[C@@H](Cc1c[nH]c2ccccc12)C(=O)N[C@@H](C(=O)N[C@@H](Cc1c[nH]c2ccccc12)C(=O)N[C@@H](C(=O)N[C@@H](Cc1c[nH]c2ccccc12)C(=O)N[C@H](CC(C)C)C(=O)N[C@@H](Cc1c[nH]c2ccccc12)C(=O)NCCO)C(C)C)[C@H](C)O)C(C)C [compound 5532] (For-VGA[dT]A[dL]V[dL]W[dT]W[dV]W[dL]W-NHCH2CH2OH)
TARGET DESC: Streptococcus pyogenes SSI-9
antibacterial activity: -
--
COMPOUND: CNC(=O)C[C@@H](NC(=O)[C@H](Cc1c[nH]c2ccccc12)NC(=O)[C@H](NC(=O)[C@H](Cc1c[nH]c2ccccc12)NC(=O)[C@@H](CC(C)C)NC(=O)[C@H](Cc1c[nH]c2ccccc12)NC(=O)[C@H](NC(=O)[C@@H](NC(=O)[C@@H](CC(C)C)NC(=O)[C@H](C)NC(=O)[C@@H](CC(C)C)NC(=O)[C@H](C)NC(=O)CNC(=O)[C@@H](NC=O)C(C)C)C(C)C)C(C)C)C(C)C)C(=O)N[C@@H](Cc1c[nH]c2ccccc12)C(=O)NCCO [compound 8516] (For-VGA[dL]A[dL]V[dV]W[dL]W[dV]W[dD](NHMe)W-NHCH2CH2OH)
TARGET DESC: Streptococcus pyogenes SSI-9
antibacterial activity: -
